Sourced from ChEMBL document CHEMBL4477238

# MEASURED TARGET: UniProt:P00734
MEASURED ATTRIBUTE: Ki (µM)
One number for each entry, in µM.

Dear colleague, could you send me Ki for each of the items below? Thanks.
1. CC(C)CS(=O)(=O)N1CCC[C@H]1C(=O)NCc1ccc(C(=N)N)cc1
2. CCS(=O)(=O)N1CCC[C@H]1C(=O)NCc1ccc(C(=N)N)cc1

3.4
117
